Where do these numbers come from? They come from paper PMC12420824.

compounds and their reported pIC50
# experimental-target: ALPK1 (Homo sapiens, UniProt Q96QP1)
# Sequence (Q96QP1 whole entry): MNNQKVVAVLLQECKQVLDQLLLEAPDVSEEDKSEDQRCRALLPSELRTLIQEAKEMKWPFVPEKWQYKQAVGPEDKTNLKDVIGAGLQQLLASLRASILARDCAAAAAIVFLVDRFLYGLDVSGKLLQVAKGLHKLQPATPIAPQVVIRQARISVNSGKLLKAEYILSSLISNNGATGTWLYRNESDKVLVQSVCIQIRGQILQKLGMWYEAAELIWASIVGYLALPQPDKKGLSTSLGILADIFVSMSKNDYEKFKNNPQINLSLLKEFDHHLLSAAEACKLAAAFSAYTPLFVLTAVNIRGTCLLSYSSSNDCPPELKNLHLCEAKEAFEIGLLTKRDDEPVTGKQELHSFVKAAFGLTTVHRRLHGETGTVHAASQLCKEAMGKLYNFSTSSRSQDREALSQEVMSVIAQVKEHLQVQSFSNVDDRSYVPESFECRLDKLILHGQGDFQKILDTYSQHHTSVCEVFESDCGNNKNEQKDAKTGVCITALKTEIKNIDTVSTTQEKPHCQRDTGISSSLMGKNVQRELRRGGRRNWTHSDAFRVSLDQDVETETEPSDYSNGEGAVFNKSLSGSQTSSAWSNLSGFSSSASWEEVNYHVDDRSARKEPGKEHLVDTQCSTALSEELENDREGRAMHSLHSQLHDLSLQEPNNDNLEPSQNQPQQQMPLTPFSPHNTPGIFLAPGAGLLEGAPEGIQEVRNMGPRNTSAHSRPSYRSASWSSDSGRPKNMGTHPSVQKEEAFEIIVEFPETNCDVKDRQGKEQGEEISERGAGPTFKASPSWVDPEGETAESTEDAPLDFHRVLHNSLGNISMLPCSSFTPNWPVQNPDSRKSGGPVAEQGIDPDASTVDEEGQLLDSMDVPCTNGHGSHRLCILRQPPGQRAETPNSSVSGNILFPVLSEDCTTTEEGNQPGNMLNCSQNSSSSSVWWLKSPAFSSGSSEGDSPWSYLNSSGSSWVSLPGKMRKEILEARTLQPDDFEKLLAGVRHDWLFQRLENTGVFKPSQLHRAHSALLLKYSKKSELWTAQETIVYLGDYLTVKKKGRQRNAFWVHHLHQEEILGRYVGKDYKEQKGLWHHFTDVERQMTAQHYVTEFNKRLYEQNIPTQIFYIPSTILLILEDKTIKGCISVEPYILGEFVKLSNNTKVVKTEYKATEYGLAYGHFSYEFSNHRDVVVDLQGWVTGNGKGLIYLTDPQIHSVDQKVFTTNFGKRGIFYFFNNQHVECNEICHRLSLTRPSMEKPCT
# run-description: TR-FRET (HTRF) kinase assay
# assay-context: read-out: HTRF Assay (IC50); 6.25 µM ATP, 20 nM ADP-D-heptose
Recall that pIC50 is obtained by taking minus log10 of the concentration measured in molar.

Answered examples (3):
| compound | reported-endpoint | measurement |
| --- | --- | --- |
| C#CC(C)(c1ccc(Cl)cc1)c1csc(NC(=O)c2c(F)cc(NCCO)cc2F)n1 (stereo not shown) | pIC50 | 6.39 |
| COc1cccc2sc(NC(=O)c3c(F)cc(N4CCN(CCO)CC4)cc3F)nc12 | pIC50 | 5.28 |
| C#CC(C)(c1ccc(OC)cc1)c1csc(NC(N)=O)n1 (stereo not shown) | pIC50 | 7.03 |

Ask: For the compound C#CC(C)(c1csc(NC(=O)c2c(F)cc(N3CCNCC3)cc2F)n1)c1ccc(Cl)cc1F (stereo not shown) , what pIC50 is on record?
Reply: 7.11

Ask: Fill blank: measured pIC50 of the compound "CC(C)(c1ccc(Br)cc1)c1csc(NC(=O)NCc2ccc(N3CCNCC3)cc2)n1" is ____.
Reply: 6.89

Ask: Request the reported pIC50 associated with C#CC(C)(c1ccc(Cl)cc1)c1csc(NC(=O)c2ccc(N3CCNCC3)nc2)n1 (stereo not shown)
Reply: 6.78

Ask: Fill in: pIC50 of C#CC(C)(c1ccc(Cl)cc1)c1csc(NC(=O)c2ccc(N3CCNCC3)cc2)n1 (stereo not shown) is ___
Reply: 7.42

Ask: // query pIC50 value for entry "COc1ccccc1CNC(=O)Nc1nc(C(C)(C)c2ccc(Br)cc2)cs1"
Reply: 5.96

Ask: Which pIC50 is listed for COc1ccccc1CNC(=O)Nc1nc(C(C)c2ccccc2)cs1 (stereo not shown) ?
Reply: 5.43

Ask: What measured pIC50 goes with C#CC(C)(c1ccc(Cl)cc1)c1csc(NC(=O)c2c(F)cc(N3CCC(N)C3)cc2F)n1 (stereo not shown) ?
Reply: 7.51

Ask: Recorded pIC50 of "COc1cc(CNC(=O)Nc2nc(C(C)(C)c3ccc(Br)cc3)cs2)ccc1N1CCNCC1" , please.
Reply: 6.79
